AUC(0-t): recorded values
Protocol Details: Pharmacokinetic study in rats (oral gavage and tail vein injection, plasma LC-MS/MS)
Format: in vivo
Stated Conditions: male, rat, SD rats, Po, 3 mg/kg
Value Type: AUC(0-t)

INSERT INTO measurements (compound, observed_measurement) VALUES
  ('CCCN(C)C(=O)OCc1c(-c2ccc(O[C@H]3CCC[C@H](C(=O)O)C3)c(C)n2)nnn1C [Control compound 1, reference compound]', '1540 ng·h/mL'),
  ('Cc1nc(-c2nnn(C)c2CNC(=O)OCCC(C)C)ccc1C#CC1(CC(=O)O)CC1', '5000 to 10000 ng·h/mL'),
  ('Cc1nc(-c2nnn(C)c2NC(=O)O[C@H](C)CC(C)(F)F)ccc1C#C[C@@H]1CC[C@H]1C(=O)O (mixture of isomers)', '10000 to 20000 ng·h/mL'),
  ('Cc1nc(-c2nnn(C)c2COc2nccc(C3CC(F)(F)C3)n2)ccc1C#CC1(CC(=O)O)CC1', '5000 to 10000 ng·h/mL'),
  ('C[C@H](C1CC1)N(C)C(=O)OCc1c(-c2ccc(C#CC3(CC(=O)O)CC3)cn2)nnn1C', '3000 to 5000 ng·h/mL'),
  ('Cc1nc(-c2nnn(C)c2CNc2nccc(C3CCC3)n2)ccc1C#CC1(CC(=O)O)CC1', '10000 to 20000 ng·h/mL');
